Molecular target: recombinant human MMP-2 (Homo sapiens)
Sequence (P08253 110-660): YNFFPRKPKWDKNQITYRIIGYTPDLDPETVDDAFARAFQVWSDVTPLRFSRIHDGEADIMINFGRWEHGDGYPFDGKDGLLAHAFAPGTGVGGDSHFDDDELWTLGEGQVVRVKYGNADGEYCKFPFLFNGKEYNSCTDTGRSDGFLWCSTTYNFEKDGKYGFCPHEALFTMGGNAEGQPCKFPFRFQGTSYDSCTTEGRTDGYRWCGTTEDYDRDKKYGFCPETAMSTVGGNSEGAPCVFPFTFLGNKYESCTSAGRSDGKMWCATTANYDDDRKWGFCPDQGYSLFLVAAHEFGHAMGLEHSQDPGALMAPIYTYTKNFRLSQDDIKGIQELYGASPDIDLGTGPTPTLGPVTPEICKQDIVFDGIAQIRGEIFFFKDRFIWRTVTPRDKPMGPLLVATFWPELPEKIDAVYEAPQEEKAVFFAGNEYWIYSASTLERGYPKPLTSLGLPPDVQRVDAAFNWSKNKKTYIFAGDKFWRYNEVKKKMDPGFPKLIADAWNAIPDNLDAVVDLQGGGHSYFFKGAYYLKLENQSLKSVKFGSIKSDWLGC
Test: In-vitro fluorescence assay of MMP-2 activity
pIC50: −log10 of the molar value.
// reported pIC50 for each item listed

{"compound": "Cc1cc(COc2ccc(S(=O)(=O)N[C@@H]3CN(C(=O)NC(C)(C)C)CC[C@@H]3C(=O)NO)cc2)c2ccccc2n1", "pIC50": "< 4.78"}
{"compound": "CC(=O)N1CC[C@@H](NS(=O)(=O)c2ccc(OCc3cc(C)nc4ccccc34)cc2)[C@@](C)(C(=O)NO)C1", "pIC50": "< 4.78"}
{"compound": "CC(=O)N1CCC(C(=O)NO)C(NS(=O)(=O)c2ccc(OCc3cc(C)nc4ccccc34)cc2)C1 (mixture of isomers)", "pIC50": "< 4.78"}
{"compound": "C#CCN1C[C@H](C(=O)NO)[C@H](NS(=O)(=O)c2ccc(OCc3cc(C)nc4ccccc34)cc2)C1 (relative stereo)", "pIC50": "< 5.00"}
{"compound": "Cc1cc(COc2ccc(S(=O)(=O)N(C)[C@H]3[C@@H](C(=O)NO)[C@@H]4CC[C@H]3O4)cc2)c2ccccc2n1 (relative stereo)", "pIC50": 5.39}
{"compound": "Cc1cc(COc2ccc(S(=O)(=O)N[C@@H]3CN(C(=O)OC(C)(C)C)C[C@@H]3C(=O)NO)cc2)c2ccccc2n1 (relative stereo)", "pIC50": 5.06}
